# targetUnderTest: HLA-B*44:03
# protocol: IEDB peptide-MHC binding, purified MHC/competitive/radioactivity; filed as Kd, often an IC50 or EC50 that approximates it; bounds were set here for any values at or beyond the usual limits of such assays
# experimentalParameters: source organism: Dengue virus 2 Jamaica/1409/1983
The label is Met for Kd below 100 nM and Not met for Kd equal to or exceeding 100 nM.

[[record]]
sequenceentry = "GEGLHKLGY"
labelvalue = "Not met"

[[record]]
sequenceentry = "EEVQVLALE"
labelvalue = "Not met"

[[record]]
sequenceentry = "EEIAVQNWL"
labelvalue = "Met"

[[record]]
sequenceentry = "AEISGSSPI"
labelvalue = "Met"

[[record]]
sequenceentry = "MEAQLIRQM"
labelvalue = "Not met"


====

# targetUnderTest: HLA-A*69:01
# protocol: IEDB peptide-MHC binding, purified MHC/direct/fluorescence; filed as Kd, often an IC50 or EC50 that approximates it; bounds were set here for any values at or beyond the usual limits of such assays
# experimentalParameters: source organism: Bacillus anthracis
measure: Kd (nM)

[[record]]
sequenceentry = "KMNNDVFFM"
targetundertest = "HLA-A*69:01"
unit = "nM"
val = 618


====

# targetUnderTest: HLA-A*02:11
# protocol: IEDB peptide-MHC binding, purified MHC/direct/fluorescence; filed as Kd, often an IC50 or EC50 that approximates it; bounds were set here for any values at or beyond the usual limits of such assays
# experimentalParameters: source organism: Mammarenavirus juninense
pKd: −log10 of the molar value.
measure: pKd

[[record]]
sequenceentry = "ASSEPHCAL"
measure = "pKd"
val = 7.40


====

# targetUnderTest: HLA-A*26:01
# protocol: IEDB peptide-MHC binding, purified MHC/direct/fluorescence; filed as Kd, often an IC50 or EC50 that approximates it; bounds were set here for any values at or beyond the usual limits of such assays
# experimentalParameters: source organism: Giardia intestinalis
measure: Kd

[[record]]
sequenceentry = "GPRRAAWRI"
val = "≥ 20 µM"


====

# targetUnderTest: HLA-A*02:16
# protocol: IEDB peptide-MHC binding, purified MHC/competitive/fluorescence; filed as Kd, often an IC50 or EC50 that approximates it; bounds were set here for any values at or beyond the usual limits of such assays
# experimentalParameters: source organism: Entamoeba histolytica HM-1:IMSS
pKd: −log10 of the molar value.
measure: pKd

[[record]]
sequenceentry = "LICYQIEYI"
val = "≤ 4.70"


====

# targetUnderTest: HLA-A*02:01
# protocol: IEDB peptide-MHC binding, purified MHC/competitive/fluorescence; filed as Kd, often an IC50 or EC50 that approximates it; bounds were set here for any values at or beyond the usual limits of such assays
# experimentalParameters: source organism: Vaccinia virus WR
pKd: −log10 of the molar value.
Let's look at some sequences and their measured pKd.
measure: pKd

[[record]]
sequenceentry = "MPQMKKILK"
measure = "pKd"
val = 5.70

[[record]]
sequenceentry = "FLADKKMTL"
measure = "pKd"
val = 8.82


====

# targetUnderTest: HLA-A*68:02
# protocol: IEDB peptide-MHC binding, purified MHC/direct/fluorescence; filed as Kd, often an IC50 or EC50 that approximates it; bounds were set here for any values at or beyond the usual limits of such assays
# experimentalParameters: source organism: Limestone Canyon virus
pKd: −log10 of the molar value.
measure: pKd

[[record]]
sequenceentry = "KPKHLYVSM"
val = "≤ 4.70"

